Recorded self-splicing fitness (ln) for the following sequences
# protocol: self-splicing fitness, log relative to wild type (ln ratio); higher = more splicing; Tetrahymena group I intron in knt gene, E. coli kanamycin selection, DiMSum; sequences stand for … in CUCUCU…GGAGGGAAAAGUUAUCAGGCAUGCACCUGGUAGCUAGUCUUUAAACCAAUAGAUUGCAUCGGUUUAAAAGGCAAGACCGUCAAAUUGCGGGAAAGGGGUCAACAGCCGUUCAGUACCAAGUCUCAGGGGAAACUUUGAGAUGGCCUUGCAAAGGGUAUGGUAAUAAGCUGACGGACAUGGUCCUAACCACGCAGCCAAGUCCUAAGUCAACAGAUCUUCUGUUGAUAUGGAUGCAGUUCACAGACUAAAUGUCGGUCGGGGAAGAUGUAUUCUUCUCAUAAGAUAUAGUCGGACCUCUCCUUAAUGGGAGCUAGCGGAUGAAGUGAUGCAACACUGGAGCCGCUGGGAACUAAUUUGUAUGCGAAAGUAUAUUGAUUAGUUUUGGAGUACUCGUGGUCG;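 note: selection with 25 µg/mL kanamycin versus none on LB agar overnight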
# setup.conditions: 37 °C
Answer as a number with no unit attached.

UGAUAGCAAUAUUACGAGAU | -1.92
UUCUAGCAAUAUUACGACUG | -0.702
AGAUAGCAAUAUUACGUCAU | -0.716
ACACAGCAAUAUUACGAUGA | -0.444
GCUUAGCAAUAUUACGGCCU | -1.57

Shifting focus to the sequence that follows.
Qu. Consider the sequence shown here: CCAGAGCAAUAUUACGGCAG What is its recorded self-splicing fitness (ln)?
Ans. -1

###

# protocol: self-splicing fitness, log relative to wild type (ln ratio); higher = more splicing; Tetrahymena group I intron in knt gene, E. coli kanamycin selection, DiMSum; sequences stand for … in CUCUCU…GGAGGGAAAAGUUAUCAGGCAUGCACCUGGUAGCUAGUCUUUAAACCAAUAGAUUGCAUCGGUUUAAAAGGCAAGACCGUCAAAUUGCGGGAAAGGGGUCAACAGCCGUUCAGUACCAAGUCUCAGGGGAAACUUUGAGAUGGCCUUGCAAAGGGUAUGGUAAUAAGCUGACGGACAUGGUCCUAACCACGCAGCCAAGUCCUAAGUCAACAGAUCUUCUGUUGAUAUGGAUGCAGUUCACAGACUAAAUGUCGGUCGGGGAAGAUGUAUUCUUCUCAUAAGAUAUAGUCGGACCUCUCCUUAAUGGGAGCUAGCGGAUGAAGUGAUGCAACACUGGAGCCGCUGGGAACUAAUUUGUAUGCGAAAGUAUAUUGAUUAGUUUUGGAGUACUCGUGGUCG
# setup.conditions: 37 °C
Recorded self-splicing fitness (ln) for the following sequences
Answer as a number with no unit attached.

Qu. Consider the sequence shown here: UGGCAGCAAUAUUACGGUUA What is its recorded self-splicing fitness (ln)?
Ans. 0.0782

Qu. Consider the sequence shown here: UUAAAGCAAUAUUACGUAAC What is its recorded self-splicing fitness (ln)?
Ans. -1.62

Qu. Consider the sequence shown here: CUGAAGCAAUAUUACGCCCG What is its recorded self-splicing fitness (ln)?
Ans. 0.309

Qu. Consider the sequence shown here: UCGAAGCAAUAUUACGAGCU What is its recorded self-splicing fitness (ln)?
Ans. -1.24

Qu. Consider the sequence shown here: ACCGAGCAAUAUUACGUGAG What is its recorded self-splicing fitness (ln)?
Ans. -0.997

###

# protocol: self-splicing fitness, log relative to wild type (ln ratio); higher = more splicing; Tetrahymena group I intron in knt gene, E. coli kanamycin selection, DiMSum; sequences stand for … in CUCUCU…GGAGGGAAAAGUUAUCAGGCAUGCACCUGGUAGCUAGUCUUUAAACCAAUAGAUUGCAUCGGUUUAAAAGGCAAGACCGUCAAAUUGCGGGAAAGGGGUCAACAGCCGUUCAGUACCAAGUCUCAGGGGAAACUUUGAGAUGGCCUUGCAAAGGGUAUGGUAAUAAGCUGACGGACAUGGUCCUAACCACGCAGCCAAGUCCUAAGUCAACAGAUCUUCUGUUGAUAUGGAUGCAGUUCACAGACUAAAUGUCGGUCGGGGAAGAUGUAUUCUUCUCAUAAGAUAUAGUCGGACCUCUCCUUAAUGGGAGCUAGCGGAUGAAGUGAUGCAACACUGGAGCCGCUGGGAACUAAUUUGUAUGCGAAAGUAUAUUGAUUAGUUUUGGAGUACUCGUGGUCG
# setup.conditions: 30 °C
measured.attribute: self-splicing fitness (ln)
Answer as a number with no unit attached.

See these solved cases before continuing.
AGGUAGCAAUAUUACGCUCG | -0.57
CGAGAGCAAUAUUACGCACA | -2.47
GAUCAGCAAUAUUACGACUC | -0.0915
CCUAAGCAAUAUUACGAUAG | -1.12
GAUGAGCAAUAUUACGAUGU | -2.63

Qu. Consider the sequence shown here: AGAGAGCAAUAUUACGGGCG What is its recorded self-splicing fitness (ln)?
Ans. -3.07

Qu. Consider the sequence shown here: GGCUAGCAAUAUUACGUGUG What is its recorded self-splicing fitness (ln)?
Ans. -0.503

Qu. Consider the sequence shown here: UGCCAGCAAUAUUACGGUAU What is its recorded self-splicing fitness (ln)?
Ans. -3.55

Qu. Consider the sequence shown here: CCAGAGCAAUAUUACGUGAC What is its recorded self-splicing fitness (ln)?
Ans. -3.36

Qu. Consider the sequence shown here: UAUCAGCAAUAUUACGUAGC What is its recorded self-splicing fitness (ln)?
Ans. -2.63

Qu. Consider the sequence shown here: UCCUAGCAAUAUUACGCCCC What is its recorded self-splicing fitness (ln)?
Ans. -2.75

Qu. Consider the sequence shown here: UCGUAGCAAUAUUACGUUUC What is its recorded self-splicing fitness (ln)?
Ans. -3.71

Qu. Consider the sequence shown here: CCGUAGCAAUAUUACGGUCG What is its recorded self-splicing fitness (ln)?
Ans. -0.844

Qu. Consider the sequence shown here: AUCUAGCAAUAUUACGUAUA What is its recorded self-splicing fitness (ln)?
Ans. -2.84

Qu. Consider the sequence shown here: UCAAAGCAAUAUUACGUUGG What is its recorded self-splicing fitness (ln)?
Ans. -3.81

Qu. Consider the sequence shown here: GGUAAGCAAUAUUACGUAAC What is its recorded self-splicing fitness (ln)?
Ans. -1.86

Qu. Consider the sequence shown here: GCCUAGCAAUAUUACGUGAG What is its recorded self-splicing fitness (ln)?
Ans. -1.21

Qu. Consider the sequence shown here: AAUAAGCAAUAUUACGCCUA What is its recorded self-splicing fitness (ln)?
Ans. 0.0474

Qu. Consider the sequence shown here: GCUCAGCAAUAUUACGACUA What is its recorded self-splicing fitness (ln)?
Ans. -0.565

Qu. Consider the sequence shown here: CCACAGCAAUAUUACGUGGG What is its recorded self-splicing fitness (ln)?
Ans. -3.56

###

# protocol: self-splicing fitness, log relative to wild type (ln ratio); higher = more splicing; Tetrahymena group I intron in knt gene, E. coli kanamycin selection, DiMSum; sequences stand for … in CUCUCU…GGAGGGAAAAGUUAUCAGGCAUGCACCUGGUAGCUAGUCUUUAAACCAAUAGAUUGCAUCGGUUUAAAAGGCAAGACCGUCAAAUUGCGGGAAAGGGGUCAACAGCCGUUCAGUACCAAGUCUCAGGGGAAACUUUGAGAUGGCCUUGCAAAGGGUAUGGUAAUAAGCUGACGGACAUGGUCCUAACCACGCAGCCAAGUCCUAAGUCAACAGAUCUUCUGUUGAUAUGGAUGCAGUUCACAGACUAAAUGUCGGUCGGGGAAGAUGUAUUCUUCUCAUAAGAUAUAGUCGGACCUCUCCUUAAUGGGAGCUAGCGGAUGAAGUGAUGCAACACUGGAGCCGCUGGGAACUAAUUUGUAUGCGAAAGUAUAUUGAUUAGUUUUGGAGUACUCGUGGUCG
# setup.conditions: 37 °C
measured.attribute: self-splicing fitness (ln)
Answer as a number with no unit attached.

See these solved cases before continuing.
CCUUAGCAAUAUUACGCCUU | -2.57
GACUAGCAAUAUUACGUCCG | -1.5
UCUCAGCAAUAUUACGACGC | 0.221
UACUAGCAAUAUUACGCACG | -0.992
CCAAAGCAAUAUUACGUCUG | -0.302

Qu. Consider the sequence shown here: AGGGAGCAAUAUUACGUUAU What is its recorded self-splicing fitness (ln)?
Ans. -2.94

###

Recorded self-splicing fitness (ln) for the following sequences
# protocol: self-splicing fitness, log relative to wild type (ln ratio); higher = more splicing; Tetrahymena group I intron in knt gene, E. coli kanamycin selection, DiMSum; sequences stand for … in CUCUCU…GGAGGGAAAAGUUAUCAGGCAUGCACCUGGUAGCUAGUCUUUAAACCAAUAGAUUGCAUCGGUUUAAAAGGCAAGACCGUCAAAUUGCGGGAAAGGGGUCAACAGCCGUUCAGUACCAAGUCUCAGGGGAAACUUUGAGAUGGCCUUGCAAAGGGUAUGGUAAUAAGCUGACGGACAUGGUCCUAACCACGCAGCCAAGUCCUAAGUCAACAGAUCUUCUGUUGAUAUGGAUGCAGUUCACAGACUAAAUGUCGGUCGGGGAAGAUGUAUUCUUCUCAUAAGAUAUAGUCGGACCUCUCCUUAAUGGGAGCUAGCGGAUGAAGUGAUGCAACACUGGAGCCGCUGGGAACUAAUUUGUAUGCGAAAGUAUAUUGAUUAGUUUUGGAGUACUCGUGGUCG
# setup.conditions: 37 °C
Answer as a number with no unit attached.

AUAAAGCAAUAUUACGGCGA | 1.03
UAAGAGCAAUAUUACGUGCA | -0.84
CAUCAGCAAUAUUACGUGCU | -2.46
UGUUAGCAAUAUUACGGAAG | -1.37
UAAAAGCAAUAUUACGGGUG | -0.46
AAGGAGCAAUAUUACGCUUA | -1.1
CGCAAGCAAUAUUACGGGCA | -0.199
AACUAGCAAUAUUACGUGGG | -2.38

Qu. Consider the sequence shown here: UGCUAGCAAUAUUACGUAAG What is its recorded self-splicing fitness (ln)?
Ans. -1.35

Qu. Consider the sequence shown here: AGAAAGCAAUAUUACGAGAG What is its recorded self-splicing fitness (ln)?
Ans. -2.44

Qu. Consider the sequence shown here: AGAGAGCAAUAUUACGUGAU What is its recorded self-splicing fitness (ln)?
Ans. -2.1
